- System: Panel (Carcinoma cell lines)
- protocolNotes: Mean graph mid point for growth inhibition of human cancer cell lines
- Type: functional
- Set-up: unit not given here
Note to self: class = bucket of Mean graph mid point, per Low = under 0.3, Mid = from 0.3 up to 2, High = 2 and over

| substanceSmiles | classification |
| --- | --- |
| Cl.NCCCn1c2c(c3ccccc3c1=O)C(=O)c1ccccc1-2 | Mid |
| O=C1c2ccccc2-c2c1c1ccccc1c(=O)n2CCN1CCNCC1 | Mid |
| CCn1c2c(c3ccccc3c1=O)C(=O)c1cc3c(cc1-2)OCO3 | High |
| CN(C)CCCn1c2c(c3ccccc3c1=O)C(=O)c1ccccc1-2 | Mid |
| O=C1c2ccccc2-c2c1c1ccccc1c(=O)n2CCNCCO | Mid |
| O=C1c2ccccc2-c2c1c1ccccc1c(=O)n2CCN1CCOCC1 | High |
| COc1cc2c3c(n(CCCN(C)C)c(=O)c2cc1OC)-c1cc2c(cc1C3=O)OCO2 | Mid |
| O=C1c2cc3c(cc2-c2c1c1ccccc1c(=O)n2CCCBr)OCO3 | High |
| O=C1c2ccccc2-c2c1c1ccccc1c(=O)n2CCCn1ccnc1 | Mid |
| Cl.NCCCn1c2c(c3ccccc3c1=O)C(=O)c1cc3c(cc1-2)OCO3 | Low |
| Cl.Cl.O=C1c2ccccc2-c2c1c1ccccc1c(=O)n2CCCNCCCn1ccnc1 | Mid |
| COc1cc2c3c(n(CCCNCCO)c(=O)c2cc1OC)-c1cc2c(cc1C3=O)OCO2.Cl | Low |
| COc1cc2c3c(n(C)c(=O)c2cc1OC)-c1cc2c(cc1C3=O)OCO2 | High |
| N=C(N)NCCCn1c2c(c3ccccc3c1=O)C(=O)c1ccccc1-2.O=C(O)C(F)(F)F | High |
| COc1cc2c(cc1OC)-c1c(c3ccccc3c(=O)n1CCCN)C2=O.Cl | Mid |
| COc1cc2c3c(n(CCN)c(=O)c2cc1OC)-c1cc2c(cc1C3=O)OCO2.Cl | Mid |
| Cl.NCCn1c2c(c3ccccc3c1=O)C(=O)c1ccccc1-2 | Mid |
| COc1cc2c3c(n(CCCN)c(=O)c2cc1OC)-c1cc2c(cc1C3=O)OCO2.Cl | Low |
| CC[C@@]1(O)C(=O)OCc2c1cc1n(c2=O)Cc2cc3ccccc3nc2-1 | Low |
| CCn1c2c(c3cc(OC)c(OC)cc3c1=O)C(=O)c1cc3c(cc1-2)OCO3 | High |
| Cl.NCCCCn1c2c(c3ccccc3c1=O)C(=O)c1ccccc1-2 | Low |
| CCCn1c2c(c3ccccc3c1=O)C(=O)c1cc3c(cc1-2)OCO3 | High |

====

- Test system: OVCAR-3
- protocolNotes: Growth inhibitory activity against human ovarian OVCAR-3 cell line
- Assay type: functional

| substanceSmiles | assaySystem | unitSpec | GI50 |
| --- | --- | --- | --- |
| CCn1c2c(c3cc(OC)c(OC)cc3c1=O)C(=O)c1cc3c(cc1-2)OCO3 | OVCAR-3 | µM | 3 |
| COc1cc2c3c(n(CCCN(C)C)c(=O)c2cc1OC)-c1cc2c(cc1C3=O)OCO2 | OVCAR-3 | µM | 1.4 |
| O=C1c2ccccc2-c2c1c1ccccc1c(=O)n2CCN1CCNCC1 | OVCAR-3 | µM | 1.12 |
| COc1cc2c3c(n(CCCNCCO)c(=O)c2cc1OC)-c1cc2c(cc1C3=O)OCO2.Cl | OVCAR-3 | µM | 0.35 |
| O=C1c2cc3c(cc2-c2c1c1ccccc1c(=O)n2CCCBr)OCO3 | OVCAR-3 | µM | 18.2 |
| CCn1c2c(c3ccccc3c1=O)C(=O)c1cc3c(cc1-2)OCO3 | OVCAR-3 | µM | 89.1 |

====

- System: UACC-62
- protocolNotes: Growth inhibitory activity against human melanoma UACC-62 cell line
- Format: functional
Entries and their GI50

| substanceSmiles | assaySystem | GI50 / nM |
| --- | --- | --- |
| COc1cc2c3c(n(C)c(=O)c2cc1OC)-c1cc2c(cc1C3=O)OCO2 | UACC-62 | 4200 |
| Cl.NCCCCn1c2c(c3ccccc3c1=O)C(=O)c1ccccc1-2 | UACC-62 | 50 |
| O=C1c2ccccc2-c2c1c1ccccc1c(=O)n2CCNCCO | UACC-62 | 1420 |
| Cl.Cl.O=C1c2ccccc2-c2c1c1ccccc1c(=O)n2CCCNCCCn1ccnc1 | UACC-62 | 6920 |
| COc1cc2c3c(n(CCN)c(=O)c2cc1OC)-c1cc2c(cc1C3=O)OCO2.Cl | UACC-62 | 140 |

====

- Tested on: MDA-MB-435
- protocolNotes: Growth inhibitory activity against human breast MDA-MB-435 cell line
- Assay type: functional
Consider the cut-off 2 µM. If the recorded GI50 is strictly smaller, the label is y; if not, the label is n.

| substanceSmiles | classification |
| --- | --- |
| O=C1c2ccccc2-c2c1c1ccccc1c(=O)n2CCNCCO | n |
| CCn1c2c(c3cc(OC)c(OC)cc3c1=O)C(=O)c1cc3c(cc1-2)OCO3 | n |
| Cl.NCCn1c2c(c3ccccc3c1=O)C(=O)c1ccccc1-2 | y |
| Cl.NCCCn1c2c(c3ccccc3c1=O)C(=O)c1ccccc1-2 | y |
| Cl.NCCCCn1c2c(c3ccccc3c1=O)C(=O)c1ccccc1-2 | y |
| CCCn1c2c(c3ccccc3c1=O)C(=O)c1cc3c(cc1-2)OCO3 | n |
| COc1cc2c3c(n(CCCN(C)C)c(=O)c2cc1OC)-c1cc2c(cc1C3=O)OCO2 | y |
| Cl.NCCCn1c2c(c3ccccc3c1=O)C(=O)c1cc3c(cc1-2)OCO3 | y |
| N=C(N)NCCCn1c2c(c3ccccc3c1=O)C(=O)c1ccccc1-2.O=C(O)C(F)(F)F | n |
| Cl.Cl.O=C1c2ccccc2-c2c1c1ccccc1c(=O)n2CCCNCCCn1ccnc1 | y |
| O=C1c2cc3c(cc2-c2c1c1ccccc1c(=O)n2CCCBr)OCO3 | n |
| O=C1c2ccccc2-c2c1c1ccccc1c(=O)n2CCN1CCOCC1 | n |
| COc1cc2c3c(n(C)c(=O)c2cc1OC)-c1cc2c(cc1C3=O)OCO2 | n |
| CN(C)CCCn1c2c(c3ccccc3c1=O)C(=O)c1ccccc1-2 | n |
| CCn1c2c(c3ccccc3c1=O)C(=O)c1cc3c(cc1-2)OCO3 | n |
| COc1cc2c3c(n(CCN)c(=O)c2cc1OC)-c1cc2c(cc1C3=O)OCO2.Cl | y |

====

- Test system: UACC-62
- protocolNotes: Growth inhibitory activity against human melanoma UACC-62 cell line
- Format: functional
experimentalEndpoint: GI50 (nM)

| substanceSmiles | comparativeSign | numericResult |
| --- | --- | --- |
| COc1cc2c3c(n(CCCN(C)C)c(=O)c2cc1OC)-c1cc2c(cc1C3=O)OCO2 | = | 540 |
| CCCn1c2c(c3ccccc3c1=O)C(=O)c1cc3c(cc1-2)OCO3 | > | 100000 |
| CCn1c2c(c3ccccc3c1=O)C(=O)c1cc3c(cc1-2)OCO3 | = | 20000 |
| CN(C)CCCn1c2c(c3ccccc3c1=O)C(=O)c1ccccc1-2 | = | 510 |
| Cl.NCCCn1c2c(c3ccccc3c1=O)C(=O)c1cc3c(cc1-2)OCO3 | = | 180 |
| CCn1c2c(c3cc(OC)c(OC)cc3c1=O)C(=O)c1cc3c(cc1-2)OCO3 | = | 2100 |
| Cl.NCCCn1c2c(c3ccccc3c1=O)C(=O)c1ccccc1-2 | = | 260 |
| O=C1c2ccccc2-c2c1c1ccccc1c(=O)n2CCN1CCNCC1 | = | 1380 |
| O=C1c2ccccc2-c2c1c1ccccc1c(=O)n2CCN1CCOCC1 | = | 29500 |
| Cl.NCCn1c2c(c3ccccc3c1=O)C(=O)c1ccccc1-2 | = | 920 |
| N=C(N)NCCCn1c2c(c3ccccc3c1=O)C(=O)c1ccccc1-2.O=C(O)C(F)(F)F | = | 11000 |

====

- System: OVCAR-3
- protocolNotes: Growth inhibitory activity against human ovarian OVCAR-3 cell line
- Type: functional
Grouping key: GI50. Bins: lower level (below 1000 nM), middle level (1000 nM to below 4000 nM), upper level (4000 nM or more)

| substanceSmiles | classification |
| --- | --- |
| CN(C)CCCn1c2c(c3ccccc3c1=O)C(=O)c1ccccc1-2 | middle level |
| O=C1c2ccccc2-c2c1c1ccccc1c(=O)n2CCNCCO | middle level |
| Cl.NCCCn1c2c(c3ccccc3c1=O)C(=O)c1ccccc1-2 | middle level |
| Cl.NCCCn1c2c(c3ccccc3c1=O)C(=O)c1cc3c(cc1-2)OCO3 | middle level |
| Cl.Cl.O=C1c2ccccc2-c2c1c1ccccc1c(=O)n2CCCNCCCn1ccnc1 | middle level |
| CCCn1c2c(c3ccccc3c1=O)C(=O)c1cc3c(cc1-2)OCO3 | upper level |
| COc1cc2c3c(n(CCN)c(=O)c2cc1OC)-c1cc2c(cc1C3=O)OCO2.Cl | lower level |
| N=C(N)NCCCn1c2c(c3ccccc3c1=O)C(=O)c1ccccc1-2.O=C(O)C(F)(F)F | upper level |
| Cl.NCCn1c2c(c3ccccc3c1=O)C(=O)c1ccccc1-2 | lower level |
| O=C1c2ccccc2-c2c1c1ccccc1c(=O)n2CCN1CCOCC1 | upper level |
| Cl.NCCCCn1c2c(c3ccccc3c1=O)C(=O)c1ccccc1-2 | lower level |
